Measurement record for primary human endothelial colony-forming cells (ECFCs), cord blood clones; quantity recorded: average IC10 (mean and standard deviation).
Use µM as the unit, but write only the number.

Item CCC[CH2][Sn]([Cl])([CH2]CCC)[CH2]CCC [TBT, Tributyltin Chloride] was tested on primary human endothelial colony-forming cells (ECFCs), cord blood clones; the reported average IC10 (mean and standard deviation) is 0.3

Response field average IC10 (mean and standard deviation) (primary human endothelial colony-forming cells (ECFCs), cord blood clones) for item O=[As][O-].[Na+] [NaAsO2, Sodium (meta)arsenite] : 2.4

average IC10 (mean and standard deviation) of CC1=CC(=O)c2ccccc2C1=O [Menadione, 2-methyl-1,4-naphthoquinone, reference compound] , assay on primary human endothelial colony-forming cells (ECFCs), cord blood clones, is 11.5

More entries:
Log: primary human endothelial colony-forming cells (ECFCs), cord blood clones, compound O.[Cl][Cd][Cl] [CdCl2, Cadmium Chloride Hydrate] , average IC10 (mean and standard deviation) = 6.7

meta.source: paper PMC6308159
